Molecular target: T1, biotinylated V112E-PNT domain (ETV6 residues 43-135, V112E, with Avitag) (human, UniProt P41212 43-135, V112E, biotin on the Avitag (~50 to 95% biotinylated))
T1 construct: ETV6, human, residues 43-135 of V112E ETV6; also called biotinylated V112E-PNT domain ligand; V112E-PNT domain ligand; source: E. coli BL21 (λDE3) co-transformed with pET21a-BirA, purified (Ni-NTA, thrombin cleavage); not shown: His6, N-terminal, cleaved; Avitag, N-terminal, kept
T1 sequence (looked up): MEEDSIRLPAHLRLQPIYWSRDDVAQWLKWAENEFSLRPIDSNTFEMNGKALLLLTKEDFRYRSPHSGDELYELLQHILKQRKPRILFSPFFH
Test: SPR; biotinylated V112E-PNT domain ligand captured on streptavidin Sensor Chip SA, PNT domain analytes flowed; Biacore X100, 25 °C, HBS-EP+ (10 mM HEPES, 150 mM NaCl, 3 mM EDTA, 0.05% v/v Tween-20, pH 7.4); analyte 0.2-60 nM, re-run at 20-6000 nM if KD > 60 nM
Conditions: both partners purified
observation_type: log10 koff (log10 of the value in s⁻¹)
Please be aware that the numbers have been log10-transformed from koff in s⁻¹.

- binder: "V112A-A93D-PNT domain (domain or fragment, human, UniProt P41212 40-125, looked up, ETV6 PNT domain, human; source: E. coli BL21 (λDE3), purified (Ni-NTA, thrombin cleavage); not shown: His6, N-terminal, cleaved) ALRMEEDSIRLPAHLRLQPIYWSRDDVAQWLKWAENEFSLRPIDSNTFEMNGKDLLLLTKEDFRYRSPHSGDALYELLQHILKQRK"
  observation_type: "log10 koff"
  recorded_number: -1.96
- binder: "H108A-A93D-PNT domain (domain or fragment, human, UniProt P41212 40-125, looked up, ETV6 PNT domain, human; source: E. coli BL21 (λDE3), purified (Ni-NTA, thrombin cleavage); not shown: His6, N-terminal, cleaved) ALRMEEDSIRLPAHLRLQPIYWSRDDVAQWLKWAENEFSLRPIDSNTFEMNGKDLLLLTKEDFRYRSPASGDVLYELLQHILKQRK"
  observation_type: "log10 koff"
  recorded_number: -2.85
- binder: "E76A-A93D-PNT domain (domain or fragment, human, UniProt P41212 40-125, looked up, ETV6 PNT domain, human; source: E. coli BL21 (λDE3), purified (Ni-NTA, thrombin cleavage); not shown: His6, N-terminal, cleaved) ALRMEEDSIRLPAHLRLQPIYWSRDDVAQWLKWAENAFSLRPIDSNTFEMNGKDLLLLTKEDFRYRSPHSGDVLYELLQHILKQRK"
  observation_type: "log10 koff"
  recorded_number: -2.21
- binder: "E100A-A93D-PNT domain (domain or fragment, human, UniProt P41212 40-125, looked up, ETV6 PNT domain, human; source: E. coli BL21 (λDE3), purified (Ni-NTA, thrombin cleavage); not shown: His6, N-terminal, cleaved) ALRMEEDSIRLPAHLRLQPIYWSRDDVAQWLKWAENEFSLRPIDSNTFEMNGKDLLLLTKADFRYRSPHSGDVLYELLQHILKQRK"
  observation_type: "log10 koff"
  recorded_number: -2.82

// log10 koff lookup, key: P107A-A93D-PNT domain (domain or fragment, human, UniProt P41212 40-125, looked up, ETV6 PNT domain, human; source: E. coli BL21 (λDE3), purified (Ni-NTA, thrombin cleavage); not shown: His6, N-terminal, cleaved) ALRMEEDSIRLPAHLRLQPIYWSRDDVAQWLKWAENEFSLRPIDSNTFEMNGKDLLLLTKEDFRYRSAHSGDVLYELLQHILKQRK -2.68

Return reported log10 koff; argument: H119A-A93D-PNT domain (domain or fragment, human, UniProt P41212 40-125, looked up, ETV6 PNT domain, human; source: E. coli BL21 (λDE3), purified (Ni-NTA, thrombin cleavage); not shown: His6, N-terminal, cleaved) ALRMEEDSIRLPAHLRLQPIYWSRDDVAQWLKWAENEFSLRPIDSNTFEMNGKDLLLLTKEDFRYRSPHSGDVLYELLQAILKQRK -2.47

Look at this binder and give its reported log10 koff. F77A-A93D-PNT domain (domain or fragment, human, UniProt P41212 40-125, looked up, ETV6 PNT domain, human; source: E. coli BL21 (λDE3), purified (Ni-NTA, thrombin cleavage); not shown: His6, N-terminal, cleaved) ALRMEEDSIRLPAHLRLQPIYWSRDDVAQWLKWAENEASLRPIDSNTFEMNGKDLLLLTKEDFRYRSPHSGDVLYELLQHILKQRK -1.82

Recorded log10 koff of S47A-A93D-PNT domain (domain or fragment, human, UniProt P41212 40-125, looked up, ETV6 PNT domain, human; source: E. coli BL21 (λDE3), purified (Ni-NTA, thrombin cleavage); not shown: His6, N-terminal, cleaved) ALRMEEDAIRLPAHLRLQPIYWSRDDVAQWLKWAENEFSLRPIDSNTFEMNGKDLLLLTKEDFRYRSPHSGDVLYELLQHILKQRK , please. -2.85

Look up log10 koff: R103A-A93D-PNT domain (domain or fragment, human, UniProt P41212 40-125, looked up, ETV6 PNT domain, human; source: E. coli BL21 (λDE3), purified (Ni-NTA, thrombin cleavage); not shown: His6, N-terminal, cleaved) ALRMEEDSIRLPAHLRLQPIYWSRDDVAQWLKWAENEFSLRPIDSNTFEMNGKDLLLLTKEDFAYRSPHSGDVLYELLQHILKQRK -2.27

Numbers sourced from paper PMC7949025.
